Target: T1, EsCas13d, nuclease-dead (Eubacterium siraeum, UniProt B0MS50, R295A;H300A;R849A;H854A)
T1 sequence: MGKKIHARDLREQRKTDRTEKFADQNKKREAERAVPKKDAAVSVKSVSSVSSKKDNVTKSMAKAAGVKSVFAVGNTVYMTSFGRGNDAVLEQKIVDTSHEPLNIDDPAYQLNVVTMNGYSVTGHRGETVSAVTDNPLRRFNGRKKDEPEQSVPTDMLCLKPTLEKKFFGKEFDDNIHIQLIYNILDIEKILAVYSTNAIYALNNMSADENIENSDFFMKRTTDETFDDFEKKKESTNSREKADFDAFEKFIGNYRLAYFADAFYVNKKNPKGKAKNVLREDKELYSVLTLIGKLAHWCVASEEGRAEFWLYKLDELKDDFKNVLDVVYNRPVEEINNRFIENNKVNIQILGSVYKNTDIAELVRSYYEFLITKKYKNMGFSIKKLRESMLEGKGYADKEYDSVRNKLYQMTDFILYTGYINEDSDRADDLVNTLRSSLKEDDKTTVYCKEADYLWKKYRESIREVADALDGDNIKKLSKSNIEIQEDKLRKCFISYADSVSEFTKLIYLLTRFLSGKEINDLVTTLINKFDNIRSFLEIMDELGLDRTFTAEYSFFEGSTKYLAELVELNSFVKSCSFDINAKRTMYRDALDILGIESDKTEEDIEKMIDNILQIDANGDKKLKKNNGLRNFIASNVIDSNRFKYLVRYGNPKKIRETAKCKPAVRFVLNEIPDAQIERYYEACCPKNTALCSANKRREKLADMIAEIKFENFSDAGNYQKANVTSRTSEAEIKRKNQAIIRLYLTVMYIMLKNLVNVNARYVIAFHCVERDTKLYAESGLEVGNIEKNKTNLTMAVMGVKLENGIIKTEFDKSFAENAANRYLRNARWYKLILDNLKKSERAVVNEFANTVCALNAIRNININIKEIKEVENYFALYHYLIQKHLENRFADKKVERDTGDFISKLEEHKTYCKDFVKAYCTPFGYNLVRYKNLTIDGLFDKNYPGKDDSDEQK
Test: crRNA (strand 1, pre-loaded); Mg2+; 40 mM Tris-HCl pH 7.5, 150 mM NaCl, 6 mM MgCl2, 1 mM DTT, 0.1% Tween-20, 0.2 mg/ml BSA; 25 C; 10 min per concentration, then washed
Conditions: tags: His6-TwinStrep-SUMO cleaved; N-terminal SNAP kept (SNAP-Surface 488); label: 3' end held by stalled T7 RNA polymerase
measurement.kind: Kd (nM)
Answers are plain numbers, in nM.

- target 1 MT 5'PFS UCG 3'PFS AGA (mixed) RNA 1: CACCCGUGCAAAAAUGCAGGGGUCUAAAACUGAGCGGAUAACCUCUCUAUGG RNA 2: GGGAAUGGAUCCACAUCUACGAAUUCUCGCCAUAGAGAGGUUAUCCGCUCAAGAAGAUCGGAAGAGCACACGU: 39

Let us examine a further case.
**Q:** State, in one line, measured Kd of target 1 U8C,G12C (mixed) RNA 1: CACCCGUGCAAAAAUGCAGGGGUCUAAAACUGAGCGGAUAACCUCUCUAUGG RNA 2: GGGAAUGGAUCCACAUCUACGAAUUCGUACCAUAGAGAGCUUACCCGCUCACCGAGAUCGGAAGAGCACACGU
**A:** 18.1

Cited source for all entries: paper PMC10786891
